Listed below: z-score values for each entry.
Test: fission yeast growth modulation, primary screen, strain 972, OD600, 24 h, no modulator (AID 1090);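 also: basal condition with compound alone and no growth modifier present; test concentration not given here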
Conditions: S. pombe 972 growth, higher = more signal, called active from +8 up or from −8 down
Lab note: record the figure alone, no unit after it.

Exam item: Could you share which z-score value was measured for CCCNC(=O)[C@@]1(Sc2ccc(C)cc2)CC(=O)N(Cc2cc(C(F)(F)F)cc(C(F)(F)F)c2)[C@@H]1c1ccc(CO)cc1I ?
Marked response: -5.46

Exam item: Query: z-score; subject: CCCCCCC#C[Si](O[C@H](c1ccccc1)c1cn(Cc2ccccc2)nn1)(C(C)C)C(C)C
Marked response: -1.19

Exam item: // z-score lookup, key: CC(C)NC(=O)[C@@H]1c2ccccc2C(=O)N(Cc2cc(F)cc(C(F)(F)F)c2)[C@H]1c1ccc(CO)cc1
Marked response: -0.92

Exam item: What value of z-score has been recorded for this entry: COc1ccc([Si](C)(C)[C@@H]2[C@@H](CC(=O)N3CCC[C@H]3CO)O[C@]3(C(=O)N(Cc4ccc(I)cc4)c4ccccc43)[C@H]2C)cc1
Marked response: -0.398

Exam item: z-score for COC(=O)c1c2oc(c1C(=O)OC)C(=O)N[C@@H](C(C)C)Cn1nncc1C1(CCCCC1)NC(=O)N[C@H](CO)CC2 ?
Marked response: -0.99

Exam item: Look at this compound and give its reported z-score. O=C1c2ccccc2[C@](Cc2ccccc2I)(C(=O)O)[C@H](c2ccc(CO)cc2)N1Cc1ccccc1Cl
Marked response: -1.53

Exam item: // returns reported z-score for input C=CCN1C(=O)[C@@]2(O[C@@H](CCn3cc(CCO)nn3)[C@H]([Si](C)(C)c3ccc(OC)cc3)[C@H]2C)c2cc(N3C(=O)c4cccc5cccc3c45)ccc21
Marked response: 0.593

Exam item: Consider the compound shown here: COc1ccc([Si](C)(C)[C@@H]2[C@@H](CCn3cc([C@H](O)c4ccccc4)nn3)O[C@]3(C(=O)N(C)c4c(Br)cc(C)cc43)[C@H]2C)cc1 What is its recorded z-score?
Marked response: -0.793

Exam item: Please look up its z-score: CN(C)CCCC[C@@H]1NC(=O)[C@@H]2C[C@H](C(=O)NCCCCCNC(=O)CS)[C@H](c3cccc(OCCO)c3)N2C1=O
Marked response: -1.81

Exam item: What z-score value was documented for this compound, C=CCNC(=O)[C@@H]1[C@H]2C(=O)O[C@H](c3ccccc3)[C@H](c3ccccc3)N2[C@H](c2ccc(O)cc2)[C@@]12C(=O)N(C(=O)OCCOC)c1ccc(C#Cc3ccc(OC)cc3)cc12 ?
Marked response: 0.1

Others:
Exam item: Field request: z-score | item: COC(=O)C(CC#Cc1ccc2c(c1)[C@]1(C(=O)N2)[C@H](C(=O)O)[C@H]2C(=O)O[C@H](c3ccccc3)[C@H](c3ccccc3)N2[C@@H]1c1ccc(OCCO)cc1)C(=O)OC
Marked response: -1.91

Exam item: Consider the compound COc1ccc([Si](C)(C)[C@H]2[C@H](CCO)O[C@@]3(C(=O)N(Cc4ccc(N5C(=O)c6cccc7cccc5c67)cc4)c4ccccc43)[C@@H]2C)cc1 and give its measured z-score.
Marked response: 0.472

Exam item: Look up z-score for this compound: CC(C)(C)OC(=O)CC[C@@]12N=C(c3ccc(OCCCO)cc3)O[C@@H]1c1ccccc1N(Cc1ccccc1)C2=O
Marked response: -1.2
